Target: Solute carrier organic anion transporter family member 1B1 (Homo sapiens)
Sequence (Q9Y6L6 whole entry): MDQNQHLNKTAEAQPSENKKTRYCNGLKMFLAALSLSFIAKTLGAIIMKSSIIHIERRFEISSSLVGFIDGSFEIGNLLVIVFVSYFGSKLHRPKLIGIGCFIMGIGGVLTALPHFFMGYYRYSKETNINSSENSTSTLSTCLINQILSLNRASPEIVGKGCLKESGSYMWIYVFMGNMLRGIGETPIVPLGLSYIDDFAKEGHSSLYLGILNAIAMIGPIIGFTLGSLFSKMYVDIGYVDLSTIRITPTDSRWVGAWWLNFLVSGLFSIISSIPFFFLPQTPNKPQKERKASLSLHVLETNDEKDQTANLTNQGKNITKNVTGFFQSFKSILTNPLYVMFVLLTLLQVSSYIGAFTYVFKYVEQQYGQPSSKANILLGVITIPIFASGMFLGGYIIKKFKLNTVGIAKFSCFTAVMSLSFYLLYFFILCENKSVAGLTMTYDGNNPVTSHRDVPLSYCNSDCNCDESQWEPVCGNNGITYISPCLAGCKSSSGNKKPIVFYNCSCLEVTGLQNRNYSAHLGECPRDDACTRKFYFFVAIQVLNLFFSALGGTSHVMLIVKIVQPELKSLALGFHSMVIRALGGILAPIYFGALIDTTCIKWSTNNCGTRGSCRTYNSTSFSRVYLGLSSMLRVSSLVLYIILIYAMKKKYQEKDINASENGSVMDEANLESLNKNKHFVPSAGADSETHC
propertyMeasured: IC50 (µM)

compound: Cc1noc(-c2ccc(O[C@H]3CCC[C@H](C(=O)O)C3)nn2)c1COC(=O)N(C)C1CCCC1 (racemic)
testedOn: Solute carrier organic anion transporter family member 1B1 (Homo sapiens)
unitOfMeasurement: µM
IC50: 35.4
--
compound: Cc1noc(-c2ccc(-c3ccc(C4(C(=O)O)CC4)cc3)cc2)c1NC(=O)O[C@H](C)c1ccccc1
testedOn: Solute carrier organic anion transporter family member 1B1 (Homo sapiens)
unitOfMeasurement: µM
IC50: 0.17

(A) CCCN(C)C(=O)OCc1c(-c2ccc(O[C@H]3CCC[C@H](C(=O)O)C3)c(C)n2)nnn1C
(B) CN(C(=O)OCc1c(-c2ccc(O[C@H]3CCC[C@H](C(=O)O)C3)cn2)nnn1C)C1CCCC1
Please choose the item with the lower IC50 value from this pair: A and B Write down the label of the entry you select.
B
